The values you see were collected from patent US5340929A.

System: strains TA98
Assay type: cell-based
CONDITION_DETAILS: TA98, S-9 (+), 1250 μg/plate
Collected Ames test: ratio of the number of colonies to control values appear next to each entry.
PARAMETER: Ames test: ratio of the number of colonies to control

>>> readout_number("CCC(C)c1ccc(N=Nc2c(S(=O)(=O)O)cc3cc(S(=O)(=O)O)c(N=Nc4ccc(N(c5ccccc5)c5ccc(N=Nc6ccc(O)cc6O)cc5)cc4)c(N)c3c2O)cc1 (stereo not drawn) [Ex. 3]")
1.67
>>> readout_number("Cc1cc(-c2ccc(N=Nc3c(S(=O)(=O)[O-])cc4cc(S(=O)(=O)[O-])c(N=Nc5ccccc5)c(O)c4c3N)c(C)c2)ccc1N=Nc1ccc(N)cc1N.[Na+].[Na+] [compound 3, C.I. Direct Black 154, reference compound]")
1.50
>>> readout_number("CCCCCCCCN(c1ccc(N=Nc2ccc(N)cc2O)cc1)c1ccc(N=Nc2c(S(=O)(=O)O)cc3cc(S(=O)(=O)O)c(N=Nc4ccc(S(=O)(=O)O)cc4)c(O)c3c2N)cc1 [Ex. 8]")
0.88
>>> readout_number("CN(c1ccc(N=Nc2ccc(N)cc2O)cc1)c1ccc(N=Nc2c(S(=O)(=O)O)cc3cc(S(=O)(=O)O)c(N=Nc4ccccc4)c(O)c3c2N)cc1 [Ex. 5]")
1.72
>>> readout_number("CCCCCCN(c1ccc(N=Nc2ccc(N)cc2O)cc1)c1ccc(N=Nc2c(S(=O)(=O)O)cc3cc(S(=O)(=O)O)c(N=Nc4ccccc4C)c(O)c3c2N)cc1 [Ex. 7]")
0.44
>>> readout_number("Nc1ccc(N=Nc2ccc(N=Nc3c(S(=O)(=O)[O-])cc4cc(S(=O)(=O)[O-])c(N=Nc5ccc(N=Nc6ccc(N)cc6N)cc5)c(O)c4c3N)cc2)c(N)c1.[Na+].[Na+] [compound 2, C.I. Direct Black 19, reference compound]")
52.8

====

Tested on: strains TA98
Assay type: cell-based
CONDITION_DETAILS: TA98, S-9 (+), 313 μg/plate
Rule: measured Ames test: ratio of the number of colonies to control below 1 gets Yes; anything equal to or greater than 1 gets No.

>>> class_name("Nc1ccc(N=Nc2ccc(Nc3ccc(N=Nc4c(S(=O)(=O)O)cc5cc(S(=O)(=O)O)c(N=Nc6ccccc6)c(O)c5c4N)cc3S(=O)(=O)O)cc2)c(O)c1 [compound 1, C.I. Direct Black 168, reference compound]")
"No"
>>> class_name("Nc1ccc(N=Nc2ccc(N(c3ccccc3)c3ccc(N=Nc4c(S(=O)(=O)O)cc5cc(S(=O)(=O)O)c(N=Nc6ccc(S(=O)(=O)O)cc6)c(O)c5c4N)cc3)cc2)c(O)c1")
"No"
>>> class_name("CCC(C)c1ccc(N=Nc2c(S(=O)(=O)O)cc3cc(S(=O)(=O)O)c(N=Nc4ccc(N(c5ccccc5)c5ccc(N=Nc6ccc(O)cc6O)cc5)cc4)c(N)c3c2O)cc1 (centres unmarked)")
"No"
>>> class_name("CCCCCCN(c1ccc(N=Nc2ccc(N)cc2O)cc1)c1ccc(N=Nc2c(S(=O)(=O)O)cc3cc(S(=O)(=O)O)c(N=Nc4ccccc4C)c(O)c3c2N)cc1")
"Yes"

====

Collected Ames test: ratio of the number of colonies to control values appear next to each entry.
Test system: strains TA98
Format: cell-based
CONDITION_DETAILS: TA98, S-9 (-), 313 μg/plate
PARAMETER: Ames test: ratio of the number of colonies to control

>>> readout_number("CCC(C)c1ccc(N=Nc2c(S(=O)(=O)O)cc3cc(S(=O)(=O)O)c(N=Nc4ccc(N(c5ccccc5)c5ccc(N=Nc6ccc(O)cc6O)cc5)cc4)c(N)c3c2O)cc1 (stereo not drawn)")
0.78
>>> readout_number("Nc1ccc(N=Nc2ccc(N(c3ccccc3)c3ccc(N=Nc4c(S(=O)(=O)O)cc5cc(S(=O)(=O)O)c(N=Nc6ccc(S(=O)(=O)O)cc6)c(O)c5c4N)cc3)cc2)c(O)c1")
1.05
>>> readout_number("CCCCCCN(c1ccc(N=Nc2ccc(N)cc2O)cc1)c1ccc(N=Nc2c(S(=O)(=O)O)cc3cc(S(=O)(=O)O)c(N=Nc4ccccc4C)c(O)c3c2N)cc1")
1.06

====

Test system: strains TA98
Type: cell-based
CONDITION_DETAILS: TA98, S-9 (-), 78 μg/plate
// NOT MET strictly below 0.9 in Ames test: ratio of the number of colonies to control; MET otherwise

>>> class_name("CCCCCCCCN(c1ccc(N=Nc2ccc(N)cc2O)cc1)c1ccc(N=Nc2c(S(=O)(=O)O)cc3cc(S(=O)(=O)O)c(N=Nc4ccc(S(=O)(=O)O)cc4)c(O)c3c2N)cc1")
"MET"
>>> class_name("Nc1ccc(N=Nc2ccc(N(c3ccccc3)c3ccc(N=Nc4c(S(=O)(=O)O)cc5cc(S(=O)(=O)O)c(N=Nc6ccccc6)c(O)c5c4N)cc3)cc2)c(O)c1")
"NOT MET"
>>> class_name("Nc1ccc(N=Nc2ccc(Nc3ccc(N=Nc4c(S(=O)(=O)O)cc5cc(S(=O)(=O)O)c(N=Nc6ccccc6)c(O)c5c4N)cc3S(=O)(=O)O)cc2)c(O)c1 [compound 1, C.I. Direct Black 168, reference compound]")
"MET"
>>> class_name("CCCCCCN(c1ccc(N=Nc2ccc(N)cc2O)cc1)c1ccc(N=Nc2c(S(=O)(=O)O)cc3cc(S(=O)(=O)O)c(N=Nc4ccccc4C)c(O)c3c2N)cc1")
"MET"
>>> class_name("Cc1cc(-c2ccc(N=Nc3c(S(=O)(=O)[O-])cc4cc(S(=O)(=O)[O-])c(N=Nc5ccccc5)c(O)c4c3N)c(C)c2)ccc1N=Nc1ccc(N)cc1N.[Na+].[Na+] [compound 3, C.I. Direct Black 154, reference compound]")
"NOT MET"
>>> class_name("CCCCN(c1ccc(N=Nc2ccc(N)cc2O)cc1)c1ccc(N=Nc2c(S(=O)(=O)O)cc3cc(S(=O)(=O)O)c(N=Nc4ccc(C(C)CC)cc4)c(O)c3c2N)cc1 (centres unmarked)")
"MET"
>>> class_name("Cc1ccc(N(c2ccc(N=Nc3ccc(O)cc3O)cc2)c2ccc(N=Nc3c(S(=O)(=O)O)cc4cc(S(=O)(=O)O)c(N=Nc5ccccc5)c(O)c4c3N)cc2)cc1")
"MET"
>>> class_name("CN(c1ccc(N=Nc2ccc(N)cc2O)cc1)c1ccc(N=Nc2c(S(=O)(=O)O)cc3cc(S(=O)(=O)O)c(N=Nc4ccccc4)c(O)c3c2N)cc1")
"NOT MET"
>>> class_name("CCC(C)c1ccc(N=Nc2c(S(=O)(=O)O)cc3cc(S(=O)(=O)O)c(N=Nc4ccc(N(c5ccccc5)c5ccc(N=Nc6ccc(O)cc6O)cc5)cc4)c(N)c3c2O)cc1 (centres unmarked)")
"NOT MET"
>>> class_name("Nc1ccc(N=Nc2ccc(N(c3ccccc3)c3ccc(N=Nc4c(S(=O)(=O)O)cc5cc(S(=O)(=O)O)c(N=Nc6ccc(S(=O)(=O)O)cc6)c(O)c5c4N)cc3)cc2)c(O)c1")
"MET"

====

Tested on: strains TA98
Assay type: cell-based
CONDITION_DETAILS: TA98, S-9 (+), 20 μg/plate
Collected Ames test: ratio of the number of colonies to control values appear next to each entry.
PARAMETER: Ames test: ratio of the number of colonies to control

>>> readout_number("Nc1ccc(N=Nc2ccc(N(c3ccccc3)c3ccc(N=Nc4c(S(=O)(=O)O)cc5cc(S(=O)(=O)O)c(N=Nc6ccc(S(=O)(=O)O)cc6)c(O)c5c4N)cc3)cc2)c(O)c1")
1.23
>>> readout_number("CCCCN(c1ccc(N=Nc2ccc(N)cc2O)cc1)c1ccc(N=Nc2c(S(=O)(=O)O)cc3cc(S(=O)(=O)O)c(N=Nc4ccc(C(C)CC)cc4)c(O)c3c2N)cc1 (centres unmarked)")
1.09
>>> readout_number("CN(c1ccc(N=Nc2ccc(N)cc2O)cc1)c1ccc(N=Nc2c(S(=O)(=O)O)cc3cc(S(=O)(=O)O)c(N=Nc4ccccc4)c(O)c3c2N)cc1")
1.60
>>> readout_number("CCCCCCN(c1ccc(N=Nc2ccc(N)cc2O)cc1)c1ccc(N=Nc2c(S(=O)(=O)O)cc3cc(S(=O)(=O)O)c(N=Nc4ccccc4C)c(O)c3c2N)cc1")
1.20
>>> readout_number("CCC(C)c1ccc(N=Nc2c(S(=O)(=O)O)cc3cc(S(=O)(=O)O)c(N=Nc4ccc(N(c5ccccc5)c5ccc(N=Nc6ccc(O)cc6O)cc5)cc4)c(N)c3c2O)cc1 (centres unmarked)")
1.30

====

Collected Ames test: ratio of the number of colonies to control values appear next to each entry.
Tested on: strains TA98
Type: cell-based
CONDITION_DETAILS: TA98, S-9 (+), 5000 μg/plate
PARAMETER: Ames test: ratio of the number of colonies to control

>>> readout_number("Cc1cc(-c2ccc(N=Nc3c(S(=O)(=O)[O-])cc4cc(S(=O)(=O)[O-])c(N=Nc5ccccc5)c(O)c4c3N)c(C)c2)ccc1N=Nc1ccc(N)cc1N.[Na+].[Na+] [compound 3, C.I. Direct Black 154, reference compound]")
0.85
>>> readout_number("CCCCCCN(c1ccc(N=Nc2ccc(N)cc2O)cc1)c1ccc(N=Nc2c(S(=O)(=O)O)cc3cc(S(=O)(=O)O)c(N=Nc4ccccc4C)c(O)c3c2N)cc1")
0.53
>>> readout_number("Nc1ccc(N=Nc2ccc(N(c3ccccc3)c3ccc(N=Nc4c(S(=O)(=O)O)cc5cc(S(=O)(=O)O)c(N=Nc6ccc(S(=O)(=O)O)cc6)c(O)c5c4N)cc3)cc2)c(O)c1")
1.17
>>> readout_number("Nc1ccc(N=Nc2ccc(Nc3ccc(N=Nc4c(S(=O)(=O)O)cc5cc(S(=O)(=O)O)c(N=Nc6ccccc6)c(O)c5c4N)cc3S(=O)(=O)O)cc2)c(O)c1 [compound 1, C.I. Direct Black 168, reference compound]")
3.38
>>> readout_number("CCC(C)c1ccc(N=Nc2c(S(=O)(=O)O)cc3cc(S(=O)(=O)O)c(N=Nc4ccc(N(c5ccccc5)c5ccc(N=Nc6ccc(O)cc6O)cc5)cc4)c(N)c3c2O)cc1 (centres unmarked)")
0.77
